protocol: melting temperature; fluorescence melt of hairpins on a sequencing array, two-state fit, raised by 9.35 °C to match UV melts
condition_label: sodium 0.088 M
Criterion: Tm strictly under 50 °C. Met: True. Not met: False.

Answered examples (3):
seq_text	assigned_label
GTTGCAGGAAACTGTGAC ((..(((....)))..))	True
GCAGCGCGAAAGCGGGGC ((..(((....)))..))	False
GTAACAGGAAACTGTCAC ((.((((....)))).))	True

Request: Hi there! Is Tm for GCAGTCGGAAACGACCGC ((.((((....)))).)) below 50 °C, do you know?
Result: False

Request: Just wondering, is Tm of GACGGCGGAAACACCGTC (((((.(....).))))) below 50 °C?
Result: False
